Assay: protein stability index of a GFP-peptide fusion (GPS, HEK-293T) (PSI 1-6); higher = more stable;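 note: 24-mer peptide tiles fused after GFP, lentivirally expressed, FACS-sorted into six equal bins by GFP/DsRed ratio, decoded by Illumina sequencing, PSI is the read-weighted mean bin number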
Details: treatment: MLN4924 1 uM, 8 h; c terminus: a fixed tail appended
Outcome Measure: protein stability index
Simply state the number, no unit and no words.

# sequence KPSGALGSESYKSSAGSAEQTAPG [EHMT1] ; its protein stability index = 5.43

Recorded result, SSSSSSSSSSSSSSSSGPGHGEPD [TMEM40] , protein stability index: 5.4

The sequence listed as RRGSWRLPYTDGLSWELLDSHLGG [CTBP1-DT] has a reported protein stability index of 2.66

====

Experiment: protein stability index of a GFP-peptide fusion (GPS, HEK-293T) (PSI 1-6); higher = more stable
Settings: treatment: MLN4924 1 uM, 8 h; c terminus: a fixed tail appended
Tag: satisfied if measured protein stability index is not below 3, not satisfied if it is.

Request: // inclusive: protein stability index at least 3? input: QGASWELQSLRPHDEDIKTTNVKS [ZNF396]
Response: satisfied

Request: Has SWYHWKGFEFSVPFTEMKLRPRNF [TNXB] a recorded protein stability index greater than or equal to 3?
Response: satisfied

Request: Test whether the sequence NCGLEEKIANLGSCNDSKLEFRSF [S100A14] records protein stability index of 3 or higher.
Response: not satisfied

Request: Could you tell me if the measured protein stability index of DTALLNLLPMLDALRFTADVRSVL [CTDNEP1] reaches 3 or more?
Response: not satisfied

Request: protein stability index >= 3 for AISLSTGRESYIPGICVARVYHGW [SLA] ?
Response: not satisfied

Request: Has TRDGFKLVMASLYHIYVALEEEIE [HMOX1] a recorded protein stability index greater than or equal to 3?
Response: not satisfied

Request: # bool: protein stability index of QPIRGVEGSDYINASFIDGYRQQK [PTPRD] >= 3
Response: satisfied
